target-or-test-system: Cytochrome P450 3A4 (Homo sapiens)
protocol-summary: Cytochrome panel assay with activity outcomes
condition-set: recombinant CYP, pro-luciferin dealkylation, luminescence, p450-cyp3a4; series mostly up to 57.1 µM
Hit rate of the full screen: of about 16,000 compounds, about 5,100 (32%) were called active. Not shown: some 25% with an inconclusive outcome. The call rests on the fitted dose curve; in most records, active means well fitted curve in the direction sought with a large enough effect; inconclusive means small, poorly fitted or top-dose-only effect, or effect the other way; inactive means no such curve, though single readings can be large or run the other way. The list shows a part of the results.
Parameter call: string, one of T = active, F = inactive

# count of solved cases: 6
# compound, class
data = [
    ("C[C@@H](C(=O)Nc1ccc2ccccc2c1)[C@H]1C[C@]1(C)[C@H](NC(=O)OCc1ccccc1)c1ccccc1", "T"),
    ("CCC(Sc1nc2cc3c(cc2c(=O)n1Cc1ccco1)OCO3)C(=O)Nc1ccccc1OC (stereo not given)", "T"),
    ("COc1ccc(CSc2nnnn2C)cc1[N+](=O)[O-]", "F"),
    ("CS(=O)(=O)Nc1cccc(-c2nc(Nc3ccncc3)c3ccccc3n2)c1", "T"),
    ("CCn1c2ccccc2c2cc(NC(=O)CSc3nnc(-c4ccc(OC)c(OC)c4)n3N)ccc21", "T"),
    ("O=C(C/C=N/OCc1ccc(Cl)cc1Cl)c1ccc(Cl)cc1", "T"),
]

Input line: How was COc1ccc(C)cc1NC(=O)CSc1nnc(-c2ccc(OC)c(OC)c2)n1N classified in this test?
Output line: T

Input line: How was C[C@@H](C(=O)Nc1ccc2ccccc2c1)[C@@H]1C[C@@]1(C)[C@@H](NC(=O)OCc1ccccc1)c1ccccc1 classified in this test?
Output line: T

Input line: How was Cc1nc([N+](=O)[O-])c(N2CCN(C)CC2)n1Cc1ccccc1 classified in this test?
Output line: F

Input line: How was Cc1cnc(CNc2ncncc2-c2cccc(NS(C)(=O)=O)c2)cn1 classified in this test?
Output line: T

* * *

target-or-test-system: Cytochrome P450 3A4 (Homo sapiens)
protocol-summary: Cytochrome panel assay with activity outcomes
condition-set: recombinant CYP, pro-luciferin dealkylation, luminescence, p450-cyp3a4; series mostly up to 57.1 µM
The campaign covered roughly 16,000 compounds. About 5,100 (32%) were called active. Inconclusive results (about 25%) are left out. Calls follow the shape of the dose curve; as a rule, active = well fitted curve in the direction sought with a large enough effect; inconclusive = small, poorly fitted or top-dose-only effect, or effect the other way; inactive = no such curve, though single readings can be large or run the other way. The list shows a part of the results.
Parameter call: string, one of t = active, f = inactive

# count of solved cases: 3
# compound, class
rows = [
    ("CN(C)c1ccc(-c2nc(NCc3cccnc3)c3ccccc3n2)cc1", "t"),
    ("COc1ccccc1CNC(=O)C1CCN(S(=O)(=O)N2CC(C)CC(C)C2)CC1 (centres undefined)", "t"),
    ("C[n+]1cn(CC(O)COCc2ccccc2)c2ccccc21 (centres undefined)", "f"),
]

Input line: How was Cc1ccc(Oc2ccccc2/C=C2\SC(=O)N(C)C2=O)cc1 classified in this test?
Output line: t

Input line: How was CC(=O)Nc1ccc(OC[C@@H](O)CNC(C)C)cc1 classified in this test?
Output line: f

Input line: How was CS(=O)(=O)Nc1cccc(-c2cc(NCc3ccccc3)ncn2)c1 classified in this test?
Output line: t

Input line: How was CC(=O)Nc1ccc(OCC(O)Cn2cnc3ccccc32)cc1 (centres undefined) classified in this test?
Output line: t

* * *

target-or-test-system: Cytochrome P450 3A4 (Homo sapiens)
protocol-summary: Cytochrome panel assay with activity outcomes
condition-set: recombinant CYP, pro-luciferin dealkylation, luminescence, p450-cyp3a4; series mostly up to 57.1 µM
The campaign covered roughly 16,000 compounds. About 5,100 (32%) were called active. Not shown: some 25% with an inconclusive outcome. Some of the results follow.
endpoint-label: AC50

Solved cases (5 shown):
# molecule, AC50
data = [
    ("O=C(COc1ccc2ccccc2c1)N1CCN(C(=O)c2cccnc2)CC1", "8.91 µM (active)"),
    ("O=C(O)c1cc2cc(Cl)ccc2oc1=O", "inactive"),
    ("COc1ccc2[nH]cc(CCNc3ccnc(-c4ccc5c(c4)OCO5)n3)c2c1", "2.51 µM (active)"),
    ("Cc1cccn2c(=O)c3cc(C(=O)N4COCC4(C)C)n(C)c3nc12", "inactive"),
    ("Cc1ccc(C)c(NC(=O)C2C3CCCC2C3c2ccccc2)c1 (stereo unspecified)", "inactive"),
]

COc1ccc2[nH]cc(CCNc3cc(-c4ccc(C(=O)N(C)C)cc4)ncn3)c2c1 tested on Cytochrome P450 3A4 (Homo sapiens) gave AC50: 6.31 µM (active)
